Target: αvβ3 integrin receptor (Homo sapiens, UniProt P05106+P06756)
Test: Solid-phase receptor-binding assay, competition with [125I]-echistatin, αvβ3
Conditions: IC50 in the receptor high-affinity state; IC50±SD, average of three or more independent determinations; 0.05 nM [125I]echistatin
recorded endpoint: pIC50
Formally, pIC50 is defined as -log10 of the concentration c, with c in mol/L.

Short answer for N=C(N)NCCC[C@@H]1NC(=O)[C@@H]2C[C@@H](CN2C(=O)c2ccccc2)NC(=O)[C@H](CC(=O)O)NC(=O)CNC1=O [(If), c[-Arg-Gly-Asp-AMPRO2-]] : pIC50 was 9.80

Short answer for N=C(N)NCCC[C@@H]1NC(=O)[C@@H]2C[C@H](CN2C(=O)c2ccccc2)NC(=O)[C@H](CC(=O)O)NC(=O)CNC1=O [(Ii), c[-Arg-Gly-Asp-AMPRO5-]] : pIC50 was 9.04

Short answer for CCC(=O)N1C[C@@H]2C[C@H]1C(=O)N[C@@H](CCCNC(=N)N)C(=O)NCC(=O)N[C@@H](CC(=O)O)C(=O)N2 [(Ih), c[Arg-Gly-Asp-AMPRO4-]] : pIC50 was 10.52

Short answer for CCCCCCCN1C[C@@H]2C[C@H]1C(=O)N[C@@H](CCCNC(=N)N)C(=O)NCC(=O)N[C@@H](CC(=O)O)C(=O)N2 [(Ip), c[-Arg-Gly-Asp-AMPRO15-]] : pIC50 was 10.10

From: patent US20100093612A1
